# target_entity: Granzyme K (Rattus norvegicus) (UniProt P49864)
# Sequence (P49864 whole entry): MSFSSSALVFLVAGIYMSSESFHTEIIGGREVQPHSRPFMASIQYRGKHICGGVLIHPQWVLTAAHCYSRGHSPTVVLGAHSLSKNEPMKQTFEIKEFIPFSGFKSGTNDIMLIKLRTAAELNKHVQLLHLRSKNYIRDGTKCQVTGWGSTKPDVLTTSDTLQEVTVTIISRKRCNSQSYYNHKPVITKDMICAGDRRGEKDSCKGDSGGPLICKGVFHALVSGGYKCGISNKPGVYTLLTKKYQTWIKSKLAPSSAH
# experiment_description: Inhibition of rat granzyme K
Label scheme, based on kobs/[I] (second-order inactivation rate constant): range A = under 3 M⁻¹ s⁻¹, range B = from 3 M⁻¹ s⁻¹ up to 10 M⁻¹ s⁻¹, range C = 10 M⁻¹ s⁻¹ and over

Before answering, review these 3 worked examples.
compound	discrete_label
NCCCCCC(NC(=O)OCc1ccccc1)P(=O)(Oc1ccccc1)Oc1ccccc1 (stereo unspecified)	range A
NCCCCC(NC(=O)OCc1ccccc1)P(=O)(Oc1ccccc1)Oc1ccccc1 (stereo unspecified)	range C
C[C@H](NC(=O)OCc1ccccc1)C(=O)N[C@H](C)C(=O)N[C@@H](C)C(=O)NC(c1ccc(C(N)N)cc1)P(=O)(Oc1ccccc1)Oc1ccccc1 (stereo partly specified)	range B

For N=C(N)c1ccc(C(NC(=O)[C@H](CCCCN)NC(=O)OCc2ccccc2)P(=O)(Oc2ccccc2)Oc2ccccc2)cc1 (stereo partly specified) , which kobs/[I] (second-order inactivation rate constant) bin applies?
range A

What about NC(N)c1ccc(C(NC(=O)c2ccccc2Oc2ccccc2)P(=O)(Oc2ccccc2)Oc2ccccc2)cc1 (stereo unspecified) ?
range A

What about C[C@H](NC(=O)[C@H]1CCCN1C(=O)OCc1ccccc1)C(=O)NC(c1ccc(C(=N)N)cc1)P(=O)(Oc1ccccc1)Oc1ccccc1 (stereo partly specified) ?
range B

What about N=C(N)c1ccc(C(NC(=O)[C@@H]2CCCN2C(=O)CCc2ccccc2)P(=O)(Oc2ccccc2)Oc2ccccc2)cc1 (stereo partly specified) ?
range C

###

# target_entity: Granzyme A (Homo sapiens) (UniProt P12544)
# Sequence (P12544 whole entry): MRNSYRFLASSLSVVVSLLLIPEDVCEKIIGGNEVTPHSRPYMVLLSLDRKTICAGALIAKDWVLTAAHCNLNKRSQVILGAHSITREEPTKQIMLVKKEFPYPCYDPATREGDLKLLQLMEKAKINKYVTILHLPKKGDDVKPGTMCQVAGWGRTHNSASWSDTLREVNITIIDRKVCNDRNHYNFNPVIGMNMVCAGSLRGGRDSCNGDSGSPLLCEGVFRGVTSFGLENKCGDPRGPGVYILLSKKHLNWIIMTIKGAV
# experiment_description: Inhibition of human granzyme A
Entries annotated with measured kobs/[I] (second-order inactivation rate constant)
State just the number; it will be interpreted in M⁻¹ s⁻¹.

// solved cases for kobs/[I] (second-order inactivation rate constant) follow
compound	unit_abbrev	experimental_result
N=C(N)c1ccc(C(NC(=O)[C@@H]2CCCN2C(=O)OCc2ccccc2)P(=O)(Oc2ccccc2)Oc2ccccc2)cc1 (stereo partly drawn)	M⁻¹ s⁻¹	790
N=C(N)c1ccc(C(NC(=O)[C@H](CCCCN)NC(=O)OCc2ccccc2)P(=O)(Oc2ccccc2)Oc2ccccc2)cc1 (stereo partly drawn)	M⁻¹ s⁻¹	30
NC(N)c1ccc(C(NC(=O)[C@@H]2CCCN2C(=O)CNS(=O)(=O)Cc2ccccc2)P(=O)(Oc2ccccc2)Oc2ccccc2)cc1 (stereo partly drawn)	M⁻¹ s⁻¹	3650
NCCCCCC(NC(=O)OCc1ccccc1)P(=O)(Oc1ccccc1)Oc1ccccc1 (stereo not drawn)	M⁻¹ s⁻¹	23
NC(N)c1ccc(C(NC(=O)c2cccc(Oc3ccccc3)c2)P(=O)(Oc2ccccc2)Oc2ccccc2)cc1 (stereo not drawn)	M⁻¹ s⁻¹	340
C[C@H](NC(=O)OCc1ccccc1)C(=O)N[C@H](C)C(=O)N[C@@H](C)C(=O)NC(c1ccc(C(N)N)cc1)P(=O)(Oc1ccccc1)Oc1ccccc1 (stereo partly drawn)	M⁻¹ s⁻¹	730

Would you mind telling me what kobs/[I] (second-order inactivation rate constant) value was observed for CC(C)[C@H](NC(=O)OCc1ccccc1)C(=O)NC(c1ccc(C(=N)N)cc1)P(=O)(Oc1ccccc1)Oc1ccccc1 (stereo partly drawn) ?
6.7

What about N=C(N)c1ccc(C(NC(=O)/C=C/c2ccco2)P(=O)(Oc2ccccc2)Oc2ccccc2)cc1 (stereo not drawn) ?
1740

###

# target_entity: Granzyme A (Rattus norvegicus) (UniProt Q8CJF4)
# Sequence (Q8CJF4 as listed by the source): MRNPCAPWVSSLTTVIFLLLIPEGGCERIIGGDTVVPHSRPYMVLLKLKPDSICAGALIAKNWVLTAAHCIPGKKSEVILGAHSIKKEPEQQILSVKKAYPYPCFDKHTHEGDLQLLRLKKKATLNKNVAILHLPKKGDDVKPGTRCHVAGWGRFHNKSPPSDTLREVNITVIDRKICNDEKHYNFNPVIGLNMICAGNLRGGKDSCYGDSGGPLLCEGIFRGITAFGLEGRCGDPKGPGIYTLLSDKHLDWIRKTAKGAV
# experiment_description: Inhibition of rat granzyme A.
metric_name: K obs / 1 (M⁻¹ s⁻¹)
State just the number; it will be interpreted in M⁻¹ s⁻¹.

// solved cases for K obs / 1 follow
compound	metric_name	unit_abbrev	experimental_result
C[C@H](NC(=O)OCc1ccccc1)C(=O)N[C@H](C)C(=O)N[C@@H](C)C(=O)NC(c1ccc(C(N)N)cc1)P(=O)(Oc1ccccc1)Oc1ccccc1 (some centres undefined)	K obs / 1	M⁻¹ s⁻¹	590
N=C(N)c1ccc(C(NC(=O)/C=C/c2ccccc2)P(=O)(Oc2ccccc2)Oc2ccccc2)cc1 (centres undefined)	K obs / 1	M⁻¹ s⁻¹	340
NC(N)c1ccc(C(NC(=O)c2cccc(Oc3ccccc3)c2)P(=O)(Oc2ccccc2)Oc2ccccc2)cc1 (centres undefined)	K obs / 1	M⁻¹ s⁻¹	470

Okay, now this compound:
Would you mind telling me what K obs / 1 value was observed for N=C(N)c1ccc(C(NC(=O)/C=C/c2ccco2)P(=O)(Oc2ccccc2)Oc2ccccc2)cc1 (centres undefined) ?
1740

###

Entries annotated with measured K obs / 1
# target_entity: Serine protease 1 (Bos taurus) (UniProt P00760)
# Sequence (whole entry): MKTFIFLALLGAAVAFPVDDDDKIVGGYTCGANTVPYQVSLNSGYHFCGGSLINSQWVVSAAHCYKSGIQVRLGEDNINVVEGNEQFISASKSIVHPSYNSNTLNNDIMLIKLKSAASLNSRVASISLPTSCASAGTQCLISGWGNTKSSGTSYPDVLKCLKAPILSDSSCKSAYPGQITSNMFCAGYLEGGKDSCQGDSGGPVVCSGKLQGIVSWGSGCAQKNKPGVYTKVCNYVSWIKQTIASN
# experiment_description: Inhibition of bovine trypsin
State just the number; it will be interpreted in M⁻¹ s⁻¹.

// solved cases for K obs / 1 follow
molecule	target_entity	K obs / 1 [M⁻¹ s⁻¹]
CC(C)C[C@H](NC(=O)OCc1ccccc1)C(=O)NC(c1ccc(C(=N)N)cc1)P(=O)(Oc1ccccc1)Oc1ccccc1 (stereo partly drawn)	Serine protease 1 (Bos taurus) (UniProt P00760)	50
N=C(N)c1ccc(C(NC(=O)[C@@H]2CCCN2C(=O)c2ccccc2Oc2ccccc2)P(=O)(Oc2ccccc2)Oc2ccccc2)cc1 (stereo partly drawn)	Serine protease 1 (Bos taurus) (UniProt P00760)	7760
N=C(N)c1ccc(C(NC(=O)[C@@H]2CCCN2C(=O)CC(c2ccccc2)c2ccccc2)P(=O)(Oc2ccccc2)Oc2ccccc2)cc1 (stereo partly drawn)	Serine protease 1 (Bos taurus) (UniProt P00760)	2660

Would you mind telling me what K obs / 1 value was observed for N=C(N)c1ccc(C(NC(=O)CCC(=O)O)P(=O)(Oc2ccccc2)Oc2ccccc2)cc1 (stereo not drawn) ?
45

What about N=C(N)c1ccc(C(NC(=O)[C@H](CCCCN)NC(=O)OCc2ccccc2)P(=O)(Oc2ccccc2)Oc2ccccc2)cc1 (stereo partly drawn) ?
30

What about C[C@H](NC(=O)[C@@H](CC(=O)O)NC(=O)OCc1ccccc1)C(=O)NC(c1ccc(C(=N)N)cc1)P(=O)(Oc1ccccc1)Oc1ccccc1 (stereo partly drawn) ?
2550

What about N=C(N)c1ccc(C(NC(=O)[C@H](Cc2ccccc2)NC(=O)OCc2ccccc2)P(=O)(Oc2ccccc2)Oc2ccccc2)cc1 (stereo partly drawn) ?
17

What about CC(C)(C)OC(=O)N[C@H](Cc1ccccc1)C(=O)N1CCC[C@H]1C(=O)NC(c1ccc(C(N)N)cc1)P(=O)(Oc1ccccc1)Oc1ccccc1 (stereo partly drawn) ?
130

###

# target_entity: Granzyme K (Rattus norvegicus)
# experiment_description: Inhibition of rat granzyme K
metric_name: kobs/[I] (second-order inactivation rate constant) (M⁻¹ s⁻¹)
State just the number; it will be interpreted in M⁻¹ s⁻¹.

// solved cases for kobs/[I] (second-order inactivation rate constant) follow
compound	experimental_result
C[C@@H](O)[C@H](NC(=O)OCc1ccccc1)C(=O)NC(c1ccc(C(=N)N)cc1)P(=O)(Oc1ccccc1)Oc1ccccc1 (some centres undefined)	3
N=C(N)c1ccc(C(NC(=O)/C=C/c2cccnc2)P(=O)(Oc2ccccc2)Oc2ccccc2)cc1 (centres undefined)	3
C[C@H](NC(=O)[C@@H](CC(=O)O)NC(=O)OCc1ccccc1)C(=O)NC(c1ccc(C(=N)N)cc1)P(=O)(Oc1ccccc1)Oc1ccccc1 (some centres undefined)	6
N=C(N)c1ccc(C(NC(=O)[C@@H]2CCCN2C(=O)OCc2ccccc2)P(=O)(Oc2ccccc2)Oc2ccccc2)cc1 (some centres undefined)	34
N=C(N)c1ccc(CC(NC(=O)OCc2ccccc2)P(=O)(Oc2ccccc2)Oc2ccccc2)cc1 (centres undefined)	2.1

Would you mind telling me what kobs/[I] (second-order inactivation rate constant) value was observed for N=C(N)c1ccc(C(NC(=O)[C@H](Cc2ccccc2)NC(=O)OCc2ccccc2)P(=O)(Oc2ccccc2)Oc2ccccc2)cc1 (some centres undefined) ?
13

What about N=C(N)c1ccc(C(NC(=O)/C=C/c2ccco2)P(=O)(Oc2ccccc2)Oc2ccccc2)cc1 (centres undefined) ?
32

What about N=C(N)c1ccc(C(NC(=O)[C@@H]2CCCN2C(=O)CC(c2ccccc2)c2ccccc2)P(=O)(Oc2ccccc2)Oc2ccccc2)cc1 (some centres undefined) ?
1830

What about CC(C)[C@H](NC(=O)OCc1ccccc1)C(=O)NC(c1ccc(C(=N)N)cc1)P(=O)(Oc1ccccc1)Oc1ccccc1 (some centres undefined) ?
0.7
